# target.desc: α1b adrenoreceptor (Homo sapiens)
# Construct: expressed in transfected cells
# assay.comment: Cellular calcium flux (FLIPR), α1b expressing CHO cells
# Type: cell-based
# assay.setup: α1b-expressing CHO cells; read-out: EC50, a1b Calcium (class symbol)
observed.property: EC50

* O=C(O)C(O)c1cccc(O)c1 (stereo not shown) [3-hydroxymandelic acid] | > 10 µM

====

# target.desc: UniProt P35348
# Sequence (P35348 1-466): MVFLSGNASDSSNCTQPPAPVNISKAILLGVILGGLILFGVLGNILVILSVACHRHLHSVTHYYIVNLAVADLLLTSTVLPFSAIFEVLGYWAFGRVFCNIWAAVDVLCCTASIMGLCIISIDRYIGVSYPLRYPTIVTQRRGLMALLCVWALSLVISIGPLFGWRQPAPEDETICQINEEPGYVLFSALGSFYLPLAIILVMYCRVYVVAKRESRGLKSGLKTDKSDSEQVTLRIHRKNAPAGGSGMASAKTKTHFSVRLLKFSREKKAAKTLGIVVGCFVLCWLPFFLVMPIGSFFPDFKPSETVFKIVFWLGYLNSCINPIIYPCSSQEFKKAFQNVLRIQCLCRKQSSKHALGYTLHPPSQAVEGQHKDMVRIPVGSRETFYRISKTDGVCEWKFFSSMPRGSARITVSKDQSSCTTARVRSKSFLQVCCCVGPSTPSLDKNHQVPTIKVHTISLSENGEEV
# assay.comment: Cellular calcium flux (FLIPR), α1a expressing CHO cells
# assay.setup: α1a-expressing CHO cells; read-out: EC50, a1a Calcium (class symbol)
observed.property: EC50

- O=C(O)C(O)c1cccc(O)c1 (stereo not shown) [3-hydroxymandelic acid]: > 10 µM

====

Target protein (sequence): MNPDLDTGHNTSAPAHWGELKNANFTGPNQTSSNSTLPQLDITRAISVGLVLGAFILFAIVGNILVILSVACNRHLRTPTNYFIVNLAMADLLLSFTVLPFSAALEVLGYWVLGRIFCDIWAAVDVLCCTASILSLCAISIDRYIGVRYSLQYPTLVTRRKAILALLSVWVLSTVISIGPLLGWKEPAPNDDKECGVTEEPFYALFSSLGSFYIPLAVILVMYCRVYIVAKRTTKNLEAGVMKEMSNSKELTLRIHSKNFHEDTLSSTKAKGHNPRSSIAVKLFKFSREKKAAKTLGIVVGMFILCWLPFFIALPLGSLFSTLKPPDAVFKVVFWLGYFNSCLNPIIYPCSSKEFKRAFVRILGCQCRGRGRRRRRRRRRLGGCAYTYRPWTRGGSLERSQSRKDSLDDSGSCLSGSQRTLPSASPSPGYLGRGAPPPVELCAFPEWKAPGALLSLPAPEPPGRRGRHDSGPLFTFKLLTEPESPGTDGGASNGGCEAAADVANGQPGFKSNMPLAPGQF
pKi: −log10 of the molar value.
observed.property: pKi

• O=C(O)C(O)c1cccc(O)c1 (stereo not shown) [3-hydroxymandelic acid] = < 4.00

====

# target.desc: α2b adrenoreceptor (Homo sapiens)
# Construct: expressed in transfected cells; host or cells: CHO (Chinese hamster ovary) cells, membranes
# assay.comment: [35S]-GTPγS binding exchange, α2b CHO cell membranes
# Format: biochemical
# assay.setup: read-out: EC50, a2b GTPγS (class symbol)
pEC50: −log10 of the molar value.
observed.property: pEC50

- O=C(O)C(O)c1cccc(O)c1 (stereo not shown) [3-hydroxymandelic acid]: < 5.00

====

# target.desc: α2c adrenoreceptor (Homo sapiens)
# Sequence (P18825 whole entry): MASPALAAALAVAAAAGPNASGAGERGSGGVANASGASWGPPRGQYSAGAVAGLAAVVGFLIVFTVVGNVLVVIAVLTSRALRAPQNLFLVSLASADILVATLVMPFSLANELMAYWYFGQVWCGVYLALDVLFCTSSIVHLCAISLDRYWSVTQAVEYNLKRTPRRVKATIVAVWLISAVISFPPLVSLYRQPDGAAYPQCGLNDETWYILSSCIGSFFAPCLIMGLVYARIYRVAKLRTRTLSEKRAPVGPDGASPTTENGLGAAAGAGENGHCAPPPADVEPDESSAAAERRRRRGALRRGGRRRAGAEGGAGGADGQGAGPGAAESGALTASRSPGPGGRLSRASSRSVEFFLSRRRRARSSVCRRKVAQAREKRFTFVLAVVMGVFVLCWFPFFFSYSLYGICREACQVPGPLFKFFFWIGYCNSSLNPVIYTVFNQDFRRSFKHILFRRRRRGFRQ
# assay.comment: [35S]-GTPγS binding exchange, α2c CHO cell membranes
# assay.setup: read-out: EC50, a2c GTPγS (class symbol)
observed.property: EC50

• O=C(O)C(O)c1cccc(O)c1 (stereo not shown) [3-hydroxymandelic acid] = > 10 µM

====

Protein target, amino acids: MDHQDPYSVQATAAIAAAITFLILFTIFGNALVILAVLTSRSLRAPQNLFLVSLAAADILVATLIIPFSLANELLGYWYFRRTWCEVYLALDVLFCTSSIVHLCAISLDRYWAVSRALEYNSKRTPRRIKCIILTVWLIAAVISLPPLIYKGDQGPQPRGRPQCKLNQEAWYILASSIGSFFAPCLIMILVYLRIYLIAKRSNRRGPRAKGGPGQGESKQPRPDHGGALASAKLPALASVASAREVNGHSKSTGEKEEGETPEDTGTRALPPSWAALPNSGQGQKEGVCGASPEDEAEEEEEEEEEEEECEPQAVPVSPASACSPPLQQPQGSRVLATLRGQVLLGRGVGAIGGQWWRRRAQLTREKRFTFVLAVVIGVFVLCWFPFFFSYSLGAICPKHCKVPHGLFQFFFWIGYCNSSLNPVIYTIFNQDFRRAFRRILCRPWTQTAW
observed.property: Ki

• O=C(O)C(O)c1cccc(O)c1 (stereo not shown) [3-hydroxymandelic acid] = > 100 µM
